# subject_of_test: progesterone receptor (PR) (Homo sapiens, UniProt P06401)
# Construct: Effects of Progestins and Antiprogestins on Alkaline Phosphatase Activity in T47D Cells; endogenous in cells; host or cells: T47D cells
# assay: T47D cell alkaline phosphatase assay (antagonist mode)
# Type: cell-based
# condition: PR antagonist, comparative example text; read-out: IC50 in the T47D alkaline phosphatase assay
pIC50: −log10 of the molar value.
recorded_endpoint: pIC50

[[record]]
structure_string = "Cn1c(C#N)ccc1-c1cc(F)c2c(c1)C(C)(C)C(=O)N2"
subject_of_test = "progesterone receptor (PR) (Homo sapiens, UniProt P06401)"
reported = 8.47

